# Target Or System: IL-10 (Homo sapiens, UniProt P22301 P22301:19-178)
# Sequence (P22301 19-178, one chain of several): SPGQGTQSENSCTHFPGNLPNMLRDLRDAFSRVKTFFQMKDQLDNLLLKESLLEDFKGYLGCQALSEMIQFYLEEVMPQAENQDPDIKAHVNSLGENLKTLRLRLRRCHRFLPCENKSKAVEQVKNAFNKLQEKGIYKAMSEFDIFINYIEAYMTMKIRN
# Protocol Summary: filter; group statement, at 250 nM IL-10
# Condition Label: tags: Bachem or R&D Systems; chain copies: 2

| Binder | binding result |
| --- | --- |
| IL-10 ligand 54 (ssRNA, 2'-F C and U) RNA: GGGAGACAAGAAUAAACGCUCAAAUCCCAAUCUCUAAGAGCCUGGAUGACAAUCGCAUUGGGCUUCGACAGGAGGCUCACAACAGGC | binds |
| IL-10 ligand 41 (ssRNA, 2'-F C and U) RNA: GGGAGACAAGAAUAAACGCUCAACUGAGAUCUCUAAGAGCCUGGACUCAGCUCCGAUUGAACCUUCGACAGGAGGCUCACAACAGGC | binds |
| IL-10 ligand 2 (ssRNA, 2'-F C and U) RNA: GGGAGACAAGAAUAAACGCUCAAAUCUCUACUGAGCCUGGAUUCGCCAGAAGUUUUAUCACAGUUUCGACAGGAGGCUCACAACAGGC | binds |
